Test system: MDA-MB-468
Test: normalised viability (% of control), CellTiter-Blue; higher = more viable cells (about 100 = DMSO control)
Conditions: 100 nM; incubation time: 72 h
REPORTED_PROPERTY: normalised viability
Quote the value and follow it with the unit of measurement.

Worked cases, normalised viability given:
| SMILES_STRUCTURE | TEST_VALUE |
| --- | --- |
| CC1(C)CCC(c2ccc(Cl)cc2)=C(CN2CCN(c3ccc(C(=O)NS(=O)(=O)c4ccc(N[C@H](CCN5CCOCC5)CSc5ccccc5)c(S(=O)(=O)C(F)(F)F)c4)cc3)CC2)C1 | 84.2% |
| COc1cc(Nc2c(C#N)cnc3cc(OCCCN4CCN(C)CC4)c(OC)cc23)c(Cl)cc1Cl | 107% |

Switching to the query record.
Request: # get_value(readout= normalised viability, system= MDA-MB-468) for CO[C@@H]1[C@H](N(C)C(=O)c2ccccc2)C[C@H]2O[C@]1(C)n1c3ccccc3c3c4c(c5c6ccccc6n2c5c31)C(=O)NC4
Response: 112%

====

A collection of molecules and their measured normalised response
System: BT-549
Assay: normalised response (% of control), CellTiter-Glo; higher = more viable cells (100 = DMSO, 0 = benzethonium chloride kill control)
Conditions: incubation time: 72 h
A complete answer gives the number followed by the unit.

| MOLECULE | TARGET_DESC | REPORTED_PROPERTY | TEST_VALUE |
| --- | --- | --- | --- |
| CCNC(=O)c1noc(-c2cc(C(C)C)c(O)cc2O)c1-c1ccc(CN2CCOCC2)cc1 [NVP-AUY922] (1000 nM) | BT-549 | normalised response | 39.8% |
| O=C(CCCCCCC(=O)Nc1ccccc1)NO [Vorinostat] (10000 nM) | BT-549 | normalised response | 47.7% |
| Nc1ccn([C@@H]2O[C@H](CO)[C@@H](O)C2(F)F)c(=O)n1 [Gemcitabine] (1000 nM) | BT-549 | normalised response | 44.7% |

Request: Dear colleague, I am looking for the recorded normalised response of the following molecule: O=C(O)CNC(=O)c1c(O)c2ccccc2n(Cc2ccccc2)c1=O [IOX-2] (50000 nM)
Response: 86.4%

Request: Record request: normalised response value, item Cc1cc(Nc2nc(N[C@@H](C)c3ncc(F)cn3)ncc2Cl)[nH]n1 [AZD1480] (1000 nM)
Response: 82.1%

====

The entries below come with measured normalised response values attached.
Tested on: MDA-MB-468
Experiment: normalised response (% of control), CellTiter-Glo; higher = more viable cells (100 = DMSO, 0 = benzethonium chloride kill control)
Details: incubation time: 72 h
// return numeric value only (unit: %, not printed)

Worked cases, normalised response given:
| COMPOUND | REPORTED_PROPERTY | TEST_VALUE |
| --- | --- | --- |
| Cc1nc(C(=O)NCC(=O)O)c(O)c2ccc(Oc3ccccc3)cc12 [FG-4592] (1 nM) | normalised response | 98.4 |
| CC(C)(C)NC(=O)[C@H]1CC[C@H]2[C@@H]3CC[C@H]4NC(=O)C=C[C@]4(C)[C@H]3CC[C@]12C [Finasteride] (1 nM) | normalised response | 104 |
| CN(C)C(=N)NC(=N)N [Metformin] (10 nM) | normalised response | 89.4 |
| O=C(CCCCCCC(=O)Nc1ccccc1)NO [Vorinostat] (1000 nM) | normalised response | 69.4 |
| COc1ccc(S(=O)(=O)Nc2cccnc2Nc2ccc(O)cc2)cc1 [ABT-751] (1000 nM) | normalised response | 36.9 |
| CC(C)(C)c1nc(-c2cccc(NS(=O)(=O)c3c(F)cccc3F)c2F)c(-c2ccnc(N)n2)s1 [Dabrafenib] (0.25 nM) | normalised response | 99.7 |
| CC(O)(CS(=O)(=O)c1ccc(F)cc1)C(=O)Nc1ccc(C#N)c(C(F)(F)F)c1 (stereo not drawn) [Bicalutamide] (1 nM) | normalised response | 107 |
| CCNC(=O)CCC/C=C\C[C@@H]1[C@@H](/C=C/[C@@H](O)CCc2ccccc2)[C@H](O)C[C@@H]1O [Bimatoprost] (0.55 nM) | normalised response | 99.3 |
| CNC(=O)c1ccccc1Sc1ccc2c(/C=C/c3ccccn3)n[nH]c2c1 [Axitinib] (1000 nM) | normalised response | 83.9 |
| Nc1ccn([C@@H]2O[C@H](CO)[C@@H](O)C2(F)F)c(=O)n1 [Gemcitabine] (1 nM) | normalised response | 95.7 |

Request: // normalised response lookup, key: CC(C)C[C@H](NC(=O)[C@@H](COC(C)(C)C)NC(=O)[C@H](Cc1ccc(O)cc1)NC(=O)[C@H](CO)NC(=O)[C@H](Cc1c[nH]c2ccccc12)NC(=O)[C@H](Cc1cnc[nH]1)NC(=O)[C@@H]1CCC(=O)N1)C(=O)N[C@@H](CCCNC(=N)N)C(=O)N1CCC[C@H]1C(=O)NNC(N)=O [Goserelin] (1000 nM)
Response: 94.3

Request: Need normalised response, item COc1ccc(S(=O)(=O)Nc2cccnc2Nc2ccc(O)cc2)cc1 [ABT-751] (10 nM)
Response: 98.2

Request: For the compound CC[C@H](CO)Nc1nc(NCc2ccccc2)c2ncn(C(C)C)c2n1 [Seliciclib] (1000 nM) , what normalised response is on record?
Response: 110
